Please respond with reported hGLP1R cAMP EC50 ratio for every item in the list.
Target: human GLP-1 receptor (GLP-1R) (human, UniProt P43220 24-463)
Assay: cell-based or functional assay
Numbered stars: 1 amine (or outer) side, 2 acyl side, 3 side chain; on linkers, the order of the positions; unused ones are H or OH. Square brackets hold non-standard residues; d marks the D form. Side chains are listed from the residue outwards. Ends that are not written are not given here. * marks the point of attachment. C18 diacid = O=C(O)CCCCCCCCCCCCCCCCC(=O)*; αMePhe(2-F) = C[C@](N)(Cc1ccccc1F)C(=O)O; γGlu = O=C(O)[C@H](CCC(=O)[*:2])N[*:1]; AEEA = NCCOCCOCC(=O)O; Aib = CC(C)(N)C(=O)O
Give bare numbers.

Some solved entries appear below for comparison.
YXEGTXTSDHSIXLDEKAQXHFIXYLIEGGPSSGAPPPS (Y-Aib-EGT-αMeF(2F)-TSDHSI-αMeF-LDEK((2-[2-(2-Amino-ethoxy)-ethoxy]-acetyl)2-(γ-Glu)-CO-(CH2)16-CO2H)AQ-Aib-HFI-(D-Glu)-YLIEGGPSSGAPPPS-NH2) [Example 177]: 0.00673
Y[Aib]EGT[αMePhe(2-F)]TSDYSIXLDEK([AEEA-AEEA-γGlu-C18 diacid])AQ[Aib]EFI[dE]YLIEGG-NH2 (not fully specified (residue 13); printed as Y-Aib-EGT-αMeF(2F)-TSDYSI-αMeF-LDEK((2-[2-(2-Amino-ethoxy)-ethoxy]-acetyl)2-(γ-Glu)-CO-(CH2)16-CO2H)AQ-Aib-EFI-(D-Glu)-YLIEGG-NH2) [Example 220]: 1.36
Y[Aib]EGT[αMePhe(2-F)]TSDYSIXLDEKAQ[Aib]EFISYLIEGGPSSGAPPPS-NH2 (not fully specified (residues 13, 17); printed as Y-Aib-EGT-αMeF(2F)-TSDYSI-αMeF-LDEK((2-[2-(2-Amino-ethoxy)-ethoxy]-acetyl)2-(γ-Glu)-CO-(CH2)18-CO2H)AQ-Aib-EFISYLIEGGPSSGAPPPS-NH2) [Example 150]: 0.79

# query: hGLP1R cAMP EC50 ratio of entry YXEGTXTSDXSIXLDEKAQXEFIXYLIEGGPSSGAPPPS (Y-Aib-EGT-αMeF(2F)-TSD-3Pal-SI-αMeF-LDEK((2-[2-(2-Amino-ethoxy)-ethoxy]-acetyl)2-(γ-Glu)-CO-(CH2)18-CO2H)AQ-Aib-EFI-Aib-YLIEGGPSSGAPPPS-NH2) [Example 188]
0.408
